System: A2780 ovarian cancer cells
Experiment: MTT cytotoxicity assay, A2780
Type: cell-based, human
Conditions: 72 h, mean (SD)
Collected IC50 values appear next to each entry.
The reply should be a number in nM, with the unit left off.

COMPOUND	UNIT_TEXT	IC50
N.N.[Cl][Pt][Cl] [Cisplatin, reference compound]	nM	1510
CC(C)c1cccc(C(C)C)c1-n1ccn(-c2c(C(C)C)cccc2C(C)C)[c]1=[Au-][P+](CC[P+]([Au-]=[c]1n(-c2c(C(C)C)cccc2C(C)C)ccn1-c1c(C(C)C)cccc1C(C)C)(c1ccccc1)c1ccccc1)(c1ccccc1)c1ccccc1 [Complex 1, [(Au(IPr))2(C26H24P2)](PF6)2]	nM	280
CC(C)c1cccc(C(C)C)c1-n1ccn(-c2c(C(C)C)cccc2C(C)C)[c]1=[Au-][P+](CCNCC[P+]([Au-]=[c]1n(-c2c(C(C)C)cccc2C(C)C)ccn1-c1c(C(C)C)cccc1C(C)C)(C1CCCCC1)C1CCCCC1)(C1CCCCC1)C1CCCCC1 [Complex 3, [(Au(IPr))2(C28H24P2)](PF6)2]	nM	110

Exam item: Fill in: IC50 of CC(C)c1cccc(C(C)C)c1-n1ccn(-c2c(C(C)C)cccc2C(C)C)[c]1=[Au-][P+](CCC[P+]([Au-]=[c]1n(-c2c(C(C)C)cccc2C(C)C)ccn1-c1c(C(C)C)cccc1C(C)C)(c1ccccc1)c1ccccc1)(c1ccccc1)c1ccccc1 [Complex 2, [(Au(IPr))2(C27H26P2)](PF6)2] is ___
Marked response: 280
